# Test system: HepG2 cells
# PROTOCOL DETAILS: MTT assay in HepG2 cells
# Format: cell-based
# STATED CONDITIONS: compounds tested at 10 μM; normalized with OD570-650 of vehicle treatment; in % (unit assumed)
Field 'label' (enum: satisfied / not satisfied). Set to satisfied when HepG2 MT is strictly under 100; else not satisfied.

Example entries begin here.
CCOC(=O)c1nc(Nc2cc(N)cc(Oc3ccccc3)c2)c2ccccc2n1 [Compound 5a]    not satisfied
O=C(O)c1nc(Nc2cc(Oc3ccccc3)cc([N+](=O)[O-])c2)c2ccccc2n1 [Compound 7a]    satisfied
CCOC(=O)c1nc(Nc2cc(Oc3cccc(C)c3)cc([N+](=O)[O-])c2)c2ccccc2n1 [Compound 1c]    not satisfied
CCOC(=O)c1nc(Nc2cc(Oc3ccccc3)cc([N+](=O)[O-])c2)c2ccccc2n1 [Compound 1a]    satisfied
CCOC(=O)c1nc(Nc2cc(Oc3ccc(C)cc3)cc([N+](=O)[O-])c2)c2ccccc2n1 [Compound 1d]    not satisfied

Quick check: HepG2 MT of COC(=O)c1nc(Nc2cc(Oc3ccccc3)cc([N+](=O)[O-])c2)c2ccccc2n1 [Compound 10a] under 100?
not satisfied

Quick check: HepG2 MT of CC(C)OC(=O)c1nc(Nc2cc(Oc3ccccc3)cc([N+](=O)[O-])c2)c2ccccc2n1 [Compound 11a] under 100?
satisfied

Quick check: HepG2 MT of O=C(O)c1nc(Nc2cc(Oc3ccccc3Br)cc([N+](=O)[O-])c2)c2ccccc2n1 [Compound 7g] under 100?
satisfied

----------
# Test system: HepG2 cells
# PROTOCOL DETAILS: MTT assay in HepG2 cells
# Assay type: cell-based
# STATED CONDITIONS: compounds tested at 10 μM; normalized with OD570-650 of vehicle treatment; in % (unit assumed)
QUANTITY KIND: HepG2 MT
Simply state the number, no unit and no words.

Recorded results for 3 compounds are shown here.
CC(C)OC(=O)c1nc(Nc2cc(Oc3ccccc3Br)cc([N+](=O)[O-])c2)c2ccccc2n1 [Compound 13g]    106.5
CC(C)CCOC(=O)c1nc(Nc2cc(Oc3ccccc3)cc([N+](=O)[O-])c2)c2ccccc2n1 [Compound 12a]    63.4
CCOC(=O)c1nc(Nc2cc(Oc3c(C)cccc3C)cc([N+](=O)[O-])c2)c2ccccc2n1    106.3

# ---- query compound ----
Consider CCOC(=O)c1nc(Nc2cc(Oc3ccccc3Br)cc([N+](=O)[O-])c2)c2ccccc2n1 . Its measured HepG2 MT is 90.8

----------
Reported hTLR4 0.5 μM by item:
# STUDY TARGET: TLR4/MD-2/CD14 (Homo sapiens, UniProt O00206+Q9Y6Y9)
# Construct: host or cells: HEK293 (HEK Blue hTLR4)
# Sequence (O00206 24-839): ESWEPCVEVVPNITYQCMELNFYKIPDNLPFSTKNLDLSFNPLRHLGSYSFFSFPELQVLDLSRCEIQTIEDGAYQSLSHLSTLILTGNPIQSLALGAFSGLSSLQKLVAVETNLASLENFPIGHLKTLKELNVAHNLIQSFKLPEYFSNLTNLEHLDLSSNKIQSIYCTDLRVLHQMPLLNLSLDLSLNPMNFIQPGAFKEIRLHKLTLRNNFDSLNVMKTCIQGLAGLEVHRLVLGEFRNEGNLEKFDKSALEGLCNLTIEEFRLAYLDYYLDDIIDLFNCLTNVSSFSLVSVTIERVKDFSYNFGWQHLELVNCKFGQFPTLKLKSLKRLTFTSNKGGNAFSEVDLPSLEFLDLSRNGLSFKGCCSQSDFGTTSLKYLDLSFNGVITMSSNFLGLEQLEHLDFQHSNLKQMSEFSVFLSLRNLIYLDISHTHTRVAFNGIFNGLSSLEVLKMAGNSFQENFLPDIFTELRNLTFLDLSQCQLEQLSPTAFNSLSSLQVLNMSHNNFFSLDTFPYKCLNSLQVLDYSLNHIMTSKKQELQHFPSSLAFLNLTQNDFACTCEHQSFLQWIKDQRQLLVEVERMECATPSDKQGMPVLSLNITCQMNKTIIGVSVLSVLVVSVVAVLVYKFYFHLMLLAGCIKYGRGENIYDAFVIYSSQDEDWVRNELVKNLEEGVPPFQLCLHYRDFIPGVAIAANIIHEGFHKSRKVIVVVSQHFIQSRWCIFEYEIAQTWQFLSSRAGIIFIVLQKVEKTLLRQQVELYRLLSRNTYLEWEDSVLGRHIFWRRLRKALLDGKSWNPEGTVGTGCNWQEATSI
# Sequence (Q9Y6Y9 19-160): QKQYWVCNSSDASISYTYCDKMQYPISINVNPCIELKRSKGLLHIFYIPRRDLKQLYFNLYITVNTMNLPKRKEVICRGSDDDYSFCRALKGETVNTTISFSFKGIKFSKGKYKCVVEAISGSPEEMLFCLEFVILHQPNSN
# PROTOCOL DETAILS: hTLR4 HEK Blue reporter cells, NF-κB SEAP secretion (QuantiBlue OD630)
# Format: cell-based
# STATED CONDITIONS: 0.5 μM; Quantiblue OD630 of hTLR4 HEK Blue cells, normalized to LPS positive control=100
Simply state the number, no unit and no words.

Recorded results for 3 molecules are shown here.
Nc1cc(Nc2nc(C(=O)O)nc3ccccc23)cc(Oc2ccccc2)c1    1.1
CCOC(=O)c1nc(Nc2cc(Oc3ccccc3Cl)cc([N+](=O)[O-])c2)c2ccccc2n1    73.9
O=C(O)c1nc(Nc2cc(Oc3ccccc3)cc([N+](=O)[O-])c2)c2ccccc2n1    0.6

The molecule CCOC(=O)c1nc(Nc2cc(Oc3ccc(C)cc3)cc([N+](=O)[O-])c2)c2ccccc2n1 , when measured on TLR4/MD-2/CD14 (Homo sapiens, UniProt O00206+Q9Y6Y9), yielded hTLR4 0.5 μM of 0.5

The molecule O=C(O)c1nc(Nc2cc(Oc3ccccc3Br)cc([N+](=O)[O-])c2)c2ccccc2n1 , when measured on TLR4/MD-2/CD14 (Homo sapiens, UniProt O00206+Q9Y6Y9), yielded hTLR4 0.5 μM of 1.6

The molecule CCOC(=O)c1nc(Nc2cc(Oc3c(C)cccc3C)cc([N+](=O)[O-])c2)c2ccccc2n1 , when measured on TLR4/MD-2/CD14 (Homo sapiens, UniProt O00206+Q9Y6Y9), yielded hTLR4 0.5 μM of 0.6

The molecule CCNC(=O)c1nc(Nc2cc(Oc3ccccc3)cc([N+](=O)[O-])c2)c2ccccc2n1 , when measured on TLR4/MD-2/CD14 (Homo sapiens, UniProt O00206+Q9Y6Y9), yielded hTLR4 0.5 μM of 2.2

The molecule CC(C)OC(=O)c1nc(Nc2cc(Oc3ccccc3Br)cc([N+](=O)[O-])c2)c2ccccc2n1 [Compound 13g] , when measured on TLR4/MD-2/CD14 (Homo sapiens, UniProt O00206+Q9Y6Y9), yielded hTLR4 0.5 μM of 67.8

The molecule CCOC(=O)c1nc(Nc2cc(Oc3ccccc3C)cc([N+](=O)[O-])c2)c2ccccc2n1 , when measured on TLR4/MD-2/CD14 (Homo sapiens, UniProt O00206+Q9Y6Y9), yielded hTLR4 0.5 μM of 45.5

The molecule CCOC(=O)c1nc(Nc2cc(Oc3cccc(C)c3)cc([N+](=O)[O-])c2)c2ccccc2n1 , when measured on TLR4/MD-2/CD14 (Homo sapiens, UniProt O00206+Q9Y6Y9), yielded hTLR4 0.5 μM of 14.5

The molecule CCOC(=O)c1nc(Nc2cc(Oc3ccccc3C(F)(F)F)cc([N+](=O)[O-])c2)c2ccccc2n1 , when measured on TLR4/MD-2/CD14 (Homo sapiens, UniProt O00206+Q9Y6Y9), yielded hTLR4 0.5 μM of 58.7

The molecule CCOC(=O)c1nc(Nc2cc(N)cc(Oc3ccccc3)c2)c2ccccc2n1 , when measured on TLR4/MD-2/CD14 (Homo sapiens, UniProt O00206+Q9Y6Y9), yielded hTLR4 0.5 μM of 0.6

The molecule CCOC(=O)c1nc(Nc2cc(Oc3ccccc3Br)cc([N+](=O)[O-])c2)c2ccccc2n1 , when measured on TLR4/MD-2/CD14 (Homo sapiens, UniProt O00206+Q9Y6Y9), yielded hTLR4 0.5 μM of 79.0

The molecule NC(=O)c1nc(Nc2cc(Oc3ccccc3)cc([N+](=O)[O-])c2)c2ccccc2n1 , when measured on TLR4/MD-2/CD14 (Homo sapiens, UniProt O00206+Q9Y6Y9), yielded hTLR4 0.5 μM of 0.0

The molecule CCOC(=O)c1nc(Nc2cc(Oc3ccccc3CC)cc([N+](=O)[O-])c2)c2ccccc2n1 , when measured on TLR4/MD-2/CD14 (Homo sapiens, UniProt O00206+Q9Y6Y9), yielded hTLR4 0.5 μM of 4.2

The molecule CCOC(=O)c1nc(Nc2cc(Oc3ccccc3I)cc([N+](=O)[O-])c2)c2ccccc2n1 , when measured on TLR4/MD-2/CD14 (Homo sapiens, UniProt O00206+Q9Y6Y9), yielded hTLR4 0.5 μM of 65.5

The molecule CCOC(=O)c1nc(Nc2cc(Oc3ccccc3)cc([N+](=O)[O-])c2)c2ccccc2n1 , when measured on TLR4/MD-2/CD14 (Homo sapiens, UniProt O00206+Q9Y6Y9), yielded hTLR4 0.5 μM of 49.1

The molecule CCOC(=O)c1nc(Nc2cc(Oc3ccc4ccccc4c3)cc([N+](=O)[O-])c2)c2ccccc2n1 , when measured on TLR4/MD-2/CD14 (Homo sapiens, UniProt O00206+Q9Y6Y9), yielded hTLR4 0.5 μM of 0.8

The molecule COC(=O)c1nc(Nc2cc(Oc3ccccc3)cc([N+](=O)[O-])c2)c2ccccc2n1 [Compound 10a] , when measured on TLR4/MD-2/CD14 (Homo sapiens, UniProt O00206+Q9Y6Y9), yielded hTLR4 0.5 μM of 0.4

The molecule CC(C)CCOC(=O)c1nc(Nc2cc(Oc3ccccc3)cc([N+](=O)[O-])c2)c2ccccc2n1 [Compound 12a] , when measured on TLR4/MD-2/CD14 (Homo sapiens, UniProt O00206+Q9Y6Y9), yielded hTLR4 0.5 μM of 8.4

The molecule CC(C)OC(=O)c1nc(Nc2cc(Oc3ccccc3)cc([N+](=O)[O-])c2)c2ccccc2n1 [Compound 11a] , when measured on TLR4/MD-2/CD14 (Homo sapiens, UniProt O00206+Q9Y6Y9), yielded hTLR4 0.5 μM of 7.4
